# Test system: Human immunodeficiency virus 1
# procedure-text: Antiviral activity against HIV1 RES056 infected in MT4 cells by MTT
# Assay type: functional, organism-based
# conditions: Human immunodeficiency virus 1, RES056, MT4
readout-name: EC50 (µM)
Write it as a number; the unit µM goes unstated.

Incoming: For CCc1c(Cc2cc(C)cc(C)c2)nc(SCC(=O)c2ccccc2)[nH]c1=O , what is its reported EC50?
Outgoing: 19.8

Incoming: Param item = Cc1cn([C@H]2C[C@H](N=[N+]=[N-])[C@@H](CO)O2)c(=O)[nH]c1=O [ZIDOVUDINE] ; retrieve measured EC50.
Outgoing: 0.006

====

# Test system: Human immunodeficiency virus 1
# procedure-text: Antiviral activity against HIV1 3B infected in MT4 cells by MTT
# Format: functional, organism-based
# conditions: Human immunodeficiency virus 1, 3B
pEC50: −log10 of the molar value.
Think of 7 as a floor: if pEC50 stands on it or above, it is Met; beneath it, Not met.

Incoming: Record COc1ccc(C(=O)CSc2nc(Cc3cccc(O)c3)c(C)c(=O)[nH]2)cc1 ; criterion: pEC50 no lower than 7. Met?
Outgoing: Not met

Incoming: Is pEC50 at least 7? Consider COc1ccc(C(=O)CSc2nc(Cc3cc(C)cc(C)c3)c(C)c(=O)[nH]2)cc1
Outgoing: Met

Incoming: Given COc1ccc(C(=O)CSc2nc(Cc3c(Cl)cccc3Cl)c(C)c(=O)[nH]2)cc1 , state whether its pEC50 is at least 7.
Outgoing: Met

Incoming: Check this compound for pEC50 at or above 7: CCc1c(Cc2ccc(-c3ccccc3)cc2)nc(SCC(=O)c2ccc(OC)cc2)[nH]c1=O
Outgoing: Not met

Incoming: Please tell me: is the compound COc1ccc(C(=O)CSc2nc(Cc3ccc(Br)cc3)c(C)c(=O)[nH]2)cc1 at or over 7 in terms of pEC50?
Outgoing: Not met

Incoming: Record COc1ccc(C(=O)CSc2nc(C(c3ccccc3)c3ccccc3)c(C)c(=O)[nH]2)cc1 ; criterion: pEC50 no lower than 7. Met?
Outgoing: Not met

Incoming: Decide: is the reported value of pEC50 for COc1ccc(C(=O)CSc2nc(Cc3cc(C(F)(F)F)cc(C(F)(F)F)c3)c(C)c(=O)[nH]2)cc1 equal to or greater than 7?
Outgoing: Not met

Incoming: # check: pEC50 of Cc1cn([C@H]2C[C@H](N=[N+]=[N-])[C@@H](CO)O2)c(=O)[nH]c1=O is greater than or equal to 7
Outgoing: Met

Incoming: For this compound, is measured pEC50 7 or higher? CCc1c(Cc2cc(C)cc(C)c2)nc(SCC(=O)c2ccccc2)[nH]c1=O
Outgoing: Met

Incoming: // inclusive: pEC50 at least 7? input: CCc1c(Cc2cc(C)cc(C)c2)nc(SCC(=O)c2ccc(OC)cc2)[nH]c1=O
Outgoing: Met

====

# procedure-text: Cytotoxicity against human MT4 cells
# Assay type: cell-based
What CC50 was measured for each of the following?

Incoming: Look up CC50: COc1ccc(C(=O)CSc2nc(Cc3ccc(Br)cc3)c(C)c(=O)[nH]2)cc1
Outgoing: > 272 µM

Incoming: If you can, please state the reported CC50 value of Cc1cn([C@H]2C[C@H](N=[N+]=[N-])[C@@H](CO)O2)c(=O)[nH]c1=O [ZIDOVUDINE] .
Outgoing: > 93.5 µM

Incoming: Quick one: CC50 of COc1ccc(C(=O)CSc2nc(Cc3c(Cl)cccc3Cl)c(C)c(=O)[nH]2)cc1 ?
Outgoing: > 278 µM

Incoming: Given CCc1c(Cc2ccc(-c3ccccc3)cc2)nc(SCC(=O)c2ccc(OC)cc2)[nH]c1=O , state its recorded CC50.
Outgoing: > 266 µM

Incoming: # lookup: CC50 of COc1ccc(C(=O)CSc2nc(Cc3ccccc3Br)c(C)c(=O)[nH]2)cc1
Outgoing: > 272 µM

====

# procedure-text: Cytotoxicity against human MT4 cells
# Type: cell-based
readout-name: CC50

Incoming: Can you look up the measured CC50 of Cc1c(Cc2cccc3ccccc23)nc(SCC(=O)c2ccccc2)[nH]c1=O for me?
Outgoing: ≥ 305 µM

Incoming: For the compound shown here, CCc1c(C(c2ccccc2)c2ccccc2)nc(SCC(=O)c2ccc(OC)cc2)[nH]c1=O , give the reported CC50.
Outgoing: > 266 µM

Incoming: I have this compound here, COc1ccc(C(=O)CSc2nc(Cc3cccc(Br)c3)c(C)c(=O)[nH]2)cc1 , and I need its recorded CC50.
Outgoing: ≥ 196 µM

Incoming: I have this compound here, CCc1c(Cc2cc(C(F)(F)F)cc(C(F)(F)F)c2)nc(SCC(=O)c2ccc(OC)cc2)[nH]c1=O , and I need its recorded CC50.
Outgoing: > 236 µM

Incoming: Entry CC(C)Nc1cccnc1N1CCN(C(=O)c2cc3cc(NS(C)(=O)=O)ccc3[nH]2)CC1 has what CC50?
Outgoing: > 3.62 µM

Incoming: Which value of CC50 has been reported for COc1ccc(C(=O)CSc2nc(Cc3cc(C)cc(C)c3)c(C)c(=O)[nH]2)cc1 in the records?
Outgoing: > 308 µM

Incoming: # lookup: CC50 of CCc1c(Cc2ccccc2Br)nc(SCC(=O)c2ccc(OC)cc2)[nH]c1=O
Outgoing: 187 µM

Incoming: Reported CC50, compound CCc1c(Cc2cccc(Br)c2)nc(SCC(=O)c2ccc(OC)cc2)[nH]c1=O : ____
Outgoing: 142 µM

Incoming: Item CCc1c(Cc2ccc(Br)cc2)nc(SCC(=O)c2ccc(OC)cc2)[nH]c1=O has what recorded CC50?
Outgoing: > 264 µM

====

# procedure-text: Cytotoxicity against human MT4 cells
# Format: cell-based
readout-name: CC50

Incoming: Give the measured CC50 of CCc1c(Cc2cc(C)cc(C)c2)nc(SCC(=O)c2ccc(OC)cc2)[nH]c1=O .
Outgoing: ≥ 239 µM

Incoming: Requested field: CC50. Item: CCc1c(Cc2cc(C)cc(C)c2)nc(SCC(=O)c2ccccc2)[nH]c1=O
Outgoing: > 318 µM

Incoming: Sample O=C1Nc2ccc(Cl)cc2C(C#CC2CC2)(C(F)(F)F)O1 (single isomer, unassigned) [EFAVIRENZ] — what was its CC50?
Outgoing: > 6.34 µM

Incoming: Please report the recorded CC50 for COc1ccc(C(=O)CSc2nc(Cc3cc(C(F)(F)F)cc(C(F)(F)F)c3)c(C)c(=O)[nH]2)cc1 .
Outgoing: > 242 µM

Incoming: Consider the molecule shown here: COc1ccc(C(=O)CSc2nc(C(c3ccccc3)c3ccccc3)c(C)c(=O)[nH]2)cc1 What is its recorded CC50?
Outgoing: > 274 µM

Incoming: Returns the measured CC50 for the input molecule. Input: COc1ccc(C(=O)CSc2nc(Cc3cccc(O)c3)c(C)c(=O)[nH]2)cc1
Outgoing: 70 µM

====

# System: Human immunodeficiency virus 1
# procedure-text: Antiviral activity against HIV1 RES056 infected in MT4 cells by MTT
# Type: functional, organism-based
# conditions: Human immunodeficiency virus 1, RES056, MT4
pEC50: −log10 of the molar value.
readout-name: pEC50

Incoming: GET /values?readout=pEC50&item= CCc1c(Cc2cc(C)cc(C)c2)nc(SCC(=O)c2ccc(OC)cc2)[nH]c1=O
Outgoing: < 3.62

Incoming: Find the recorded pEC50 belonging to CC(C)Nc1cccnc1N1CCN(C(=O)c2cc3cc(NS(C)(=O)=O)ccc3[nH]2)CC1 [DELAVIRDINE] and report it.
Outgoing: < 5.44

Incoming: // pEC50 lookup, key: COc1ccc(C(=O)CSc2nc(Cc3cc(C)cc(C)c3)c(C)c(=O)[nH]2)cc1
Outgoing: < 3.51
